For each entry below, report its TGI value.
System: M14 melanoma
Assay: NCI tumour cell line growth inhibition, 48 h

Assay M14 melanoma, sample COC(=O)C(CCCCCCCC(C(=O)OC)c1nc2n(c1O)C(=N)N=N2)c1nc2n(c1O)C(=N)N=N2 (stereo not drawn) , TGI read: > 100 µM

// returns TGI for O=C(O)c1cccc(SSc2cccc(C(=O)O)c2)c1 with M14 melanoma; value = > 100 µM

So the reported TGI for COC(=O)C(=O)C(C(=O)C(=O)Nc1ccc([N+](=O)[O-])cc1[N+](=O)[O-])c1nc2ccc(Cl)cc2[nH]c1=O (stereo not drawn) , on M14 melanoma, turned out to be > 100 µM

// assay M14 melanoma, entry C[N+]1([O-])CCC(O)(C2CC2)CC1 (stereo not drawn) , TGI value = > 100 µM

With M14 melanoma as the test system, CC1(C)S[C@H](c2ccccc2C(=O)O)N[C@@H]1CC(=O)O showed TGI of > 100 µM

Bench note, M14 melanoma: entry C=C(C)c1nc(C#N)c(N)o1 , its TGI = > 100 µM

Form field TGI for item COC1CC(Br)(C#N)C1 (stereo not drawn) on M14 melanoma: > 100 µM

Bench note, M14 melanoma: CC(=O)Nc1ccccc1S(=O)(=O)c1ccccc1 , TGI reads > 100 µM

Bench note, M14 melanoma: O=S(=O)(Nc1ccc(Cl)c(F)c1)c1ccc(-c2cnc(C3CC3)o2)cc1 , TGI reads 12.9 µM

Response field TGI (M14 melanoma) for item COc1ccc(OC)c2c1C=C[C@H](C1(C)SCCS1)C2C(C)=O (stereo partly drawn) : > 100 µM

# TGI measured on M14 melanoma for item Cn1c(=O)c2[nH]c(CSCc3ccccc3)nc2n(C)c1=O = > 100 µM

Record for CC1(c2ccccc2)CCN(C2CC2)CO1 (stereo not drawn) under target or system M14 melanoma: TGI reported as 31 µM

Case C[C@]12CC[C@H]3[C@@H](CCC4=C[C@@H](N5CCCC5)CC[C@@]43C)[C@@H]1C/C(=C\c1ccncc1)[C@@H]2O , M14 melanoma, TGI recorded as 5.66 µM

====

System: SK-MEL-28 melanoma
Assay: NCI tumour cell line growth inhibition, 48 h
Assign log10(TGI) to each entry below.
Give log10 of TGI, with TGI taken in µM.

Kindly note the recorded log10(TGI) for CC12CCCCC1C(=O)C2(Cl)Cl (stereo not drawn) , which is 0.62

Just so you know, measured log10(TGI) for COc1ccc2cc1Oc1ccc(cc1)CC1c3cc(OC)c(cc3CCN1C)Oc1c(OC)c(OC)cc3c1C(C2)N(C)CC3 (stereo not drawn) came out at 1.54

For reference, reported log10(TGI) for COc1ccc(C2Oc3ccc(Cl)cc3C=C2[N+](=O)[O-])cc1OC (stereo not drawn) stands at 0.55

Reported log10(TGI) of CC1NOC(=O)C1N=Nc1ccccc1Br (stereo not drawn) : 1.90

According to the records, this molecule ClC(Cl)c1nc(-c2ccccc2)n2nc(-c3ccccc3)cc2n1 displays log10(TGI) of 0.49

According to the records, this molecule COc1cccc(/C=C2\COc3ccc(O)c(O)c3C2=O)c1 displays log10(TGI) of 0.62

The molecule Oc1ccc(C=NCC2CCCN3CCCCC23)cc1 (stereo not drawn) showed log10(TGI) equal to 1.59
